Reported IC50 is given for each of the following molecules.
testedSystem: CDK2 (Human) (UniProt P24941)
experiment: Enzyme Assay
Give just the number in nM; leave the unit off.

These solved cases illustrate the format of a correct answer.
- molecule: "O=C1Nc2ccccc2C1=C1Nc2ccccc2C1=NOCCC(O)CO (stereo not given)"
  IC50 [nM]: 930
- molecule: "N#CCCc1ccc2c(c1)-c1[nH]c3ccc([N+](=O)[O-])cc3c1CC(=O)N2"
  IC50 [nM]: 333
- molecule: "CCCCCCCCCCCCCCCCn1cc[n+](Cc2ccccc2)c1C"
  IC50 [nM]: 24500
- molecule: "CC(C)c1[nH]n(-c2c(Cl)cccc2Cl)c2nc(Cc3ccc(OCCO)cc3)nc(=O)c1-2"
  IC50 [nM]: 141
- molecule: "CC(C)[C@H](CO)Nc1nc(Nc2cccc(Cl)c2)c2ncn(C(C)C)c2n1"
  IC50 [nM]: 204
- molecule: "CCN(CC)C(=O)c1ccc(Nc2nc(OCC3CCCCC3)c3[nH]cnc3n2)cc1"
  IC50 [nM]: 4490

Attention now turns to another entry.
[ask] // returns reported IC50 for input `O=C1Nc2ccc(I)cc2/C1=C1/Nc2ccccc2/C1=N\O`
[reply] 379

----------
testedSystem: CDK2 (Human)
experiment: Enzyme Assay
Reported pIC50 is given for each of the following compounds.
Units for pIC50: none; it is -log10 of a concentration expressed in mol/L.

- substanceSmiles: "NC1=NC(=O)/C(=C2\\CCNC(=O)c3[nH]c4ccccc4c32)N1"
  pIC50: 5.89

Attention now turns to another entry.
[ask] // returns reported pIC50 for input `Cc1ccc([N+](=O)[O-])cc1S(=O)(=O)N(C)/N=C/c1cnc2ccc(Br)cn12`
[reply] 6.56

----------
testedSystem: UniProtKB P24941
experiment: Enzyme Assay
Reported IC50 is given for each of the following compounds.

These solved cases illustrate the format of a correct answer.
- substanceSmiles: "COc1cc(Nc2ncc3ccn(-c4cccc(CCC#N)c4)c3n2)cc(OC)c1OC"
  testedSystem: "UniProtKB P24941"
  IC50: "> 25000 nM"
- substanceSmiles: "O=C1NC(=O)c2c1c1c3ccccc3n3c1c1c2c2ccccc2n1C1CCC3O1"
  testedSystem: "UniProtKB P24941"
  IC50: "871 nM"
- substanceSmiles: "O=C1Nc2ccc3ncsc3c2/C1=C/c1cnc[nH]1"
  testedSystem: "UniProtKB P24941"
  IC50: "135 nM"
- substanceSmiles: "Cn1cc(C2=C(c3cn(CCCSC(=N)N)c4ccccc34)C(=O)NC2=O)c2ccccc21"
  testedSystem: "UniProtKB P24941"
  IC50: "318 nM"
- substanceSmiles: "CC(C)n1cnc2c(NCc3ccccc3O)nc(NCCCO)nc21"
  testedSystem: "UniProtKB P24941"
  IC50: "506 nM"

Attention now turns to another entry.
[ask] Query IC50 on UniProtKB P24941 for `CC(=O)O/N=C1/C(=C2/C(=O)Nc3cc(Br)ccc32)Nc2ccccc21`
[reply] 787 nM
